# Read-out: Transforming growth factor beta 1 (TGFb1), TGFB1 (gene 7040)
# TEST: BSK_BE3C_TGFb1: BioMAP Diversity Plus: BE3C Assay for Transforming growth factor beta 1 (TGFb1) Biomarker Activity (AID 2283036)
# MEASUREMENT CONTEXT: primary human bronchial epithelial cells; actives raise or lower the signal
Activity calls are given as the source filed them. How the source made its calls: active means hit-call score of the fitted dose curve at least 0.9, where 1 is the maximum; inactive means score below 0.9.
MEASUREMENT NAME: AC50

INSERT INTO assay_data (given_smiles, observed_result) VALUES
  ('O=[N+]([O-])c1ccc(O)c([N+](=O)[O-])c1', 'inactive'),
  ('C(=NC1CCCCC1)=NC1CCCCC1', 'inactive'),
  ('CCC(C)(C)c1ccc(O)c(C(C)(C)CC)c1', '20 µM (active)');

* * *

# SYSTEM UNDER TEST: Hypoxia-inducible factor 1-alpha (Homo sapiens) (UniProt Q16665)
# Sequence (Q16665 whole entry, looked up): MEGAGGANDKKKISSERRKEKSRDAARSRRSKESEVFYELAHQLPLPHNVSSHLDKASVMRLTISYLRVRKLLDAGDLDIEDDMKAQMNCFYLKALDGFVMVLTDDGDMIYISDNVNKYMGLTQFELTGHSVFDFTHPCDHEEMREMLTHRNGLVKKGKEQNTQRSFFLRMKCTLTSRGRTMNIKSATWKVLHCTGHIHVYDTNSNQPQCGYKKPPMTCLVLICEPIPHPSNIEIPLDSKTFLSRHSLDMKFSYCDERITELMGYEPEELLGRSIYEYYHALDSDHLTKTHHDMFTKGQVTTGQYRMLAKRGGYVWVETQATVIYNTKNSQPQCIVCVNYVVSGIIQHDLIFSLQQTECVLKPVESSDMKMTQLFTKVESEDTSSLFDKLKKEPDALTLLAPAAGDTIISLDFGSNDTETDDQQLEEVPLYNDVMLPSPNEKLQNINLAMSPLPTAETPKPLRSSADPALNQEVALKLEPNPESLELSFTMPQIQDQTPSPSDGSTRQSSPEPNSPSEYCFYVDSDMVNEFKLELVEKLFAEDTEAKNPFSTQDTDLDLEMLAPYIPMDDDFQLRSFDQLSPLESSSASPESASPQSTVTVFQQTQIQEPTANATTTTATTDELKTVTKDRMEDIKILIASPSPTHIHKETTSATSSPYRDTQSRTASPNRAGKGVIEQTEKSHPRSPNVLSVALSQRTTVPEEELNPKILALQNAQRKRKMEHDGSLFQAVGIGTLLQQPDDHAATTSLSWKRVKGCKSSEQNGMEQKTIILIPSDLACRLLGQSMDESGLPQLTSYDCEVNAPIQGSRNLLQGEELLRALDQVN
# TEST: ATG_HIF1a_CIS: Attagene CIS-FACTORIAL HepG2 Assay for human Hypoxia Inducible Factor 1 (HIF1A) (AID 2282951)
# MEASUREMENT CONTEXT: HepG2 Attagene cis-factorial HIF1a reporter transcription; actives raise or lower the signal
Active and inactive are the calls of the source. How the source made its calls: active means hit-call score of the fitted dose curve at least 0.9, where 1 is the maximum; inactive means score below 0.9.
// one of 1 = active, 0 = inactive, no free text

Prompt: How was CCOC(=O)/C=C(C)/C=C/C[C@@H](C)CCCC(C)C classified in this test?
Response: 1

Prompt: How was N#CCc1ccc(Cl)cc1 classified in this test?
Response: 0

Prompt: Lab log entry: ClCc1ccccn1 — outcome as called in the assay?
Response: 0

Prompt: Please let me know the test result on file for CC(C)CCCCCCOC(=O)c1ccccc1C(=O)OCCCCCCC(C)C .
Response: 0

Prompt: Could you check what this test reported for C(=NC1CCCCC1)=NC1CCCCC1 ?
Response: 0

Prompt: Please share the test call associated with O=C(NCO)NCO .
Response: 0

* * *

# Read-out: Potassium channel subfamily K member 1 (KCNK1), KCNK1 (gene 3775)
# TEST: LTEA_HepaRG_KCNK1: Life Technologies and Expression Analysis (LTEA) Assay for Potassium channel subfamily K member 1 (KCNK1) using HepaRG (AID 2283511)
# MEASUREMENT CONTEXT: mRNA level, 48 h; actives raise or lower the signal
# Description: LTEA_HepaRG is a cell based, multiplexed-readout assay that uses HepaRG, a human liver cell line, with measurements taken at 48 hours after chemical dosing on a 96-well plate.LTEA_HepaRG_KCNK1 is one of 102 assay component(s) measured in the LTEA HepaRG cell culture assay. It is a marker of Hyperplasia.Data from the assay component LTEA_HepaRG_KCNK1 was analyzed into 1 endpoint. […]
Activity calls are given as the source filed them. How the source made its calls: active means hit-call score of the fitted dose curve at least 0.9, where 1 is the maximum; inactive means score below 0.9.
MEASUREMENT NAME: outcome

INSERT INTO measurements (given_smiles, observed_result) VALUES
  ('O=C(Nc1ccc2[nH]ccc2c1)c1cc2cc(F)ccc2n1Cc1cccc(F)c1', 'inactive'),
  ('ClCC(Cl)CCl', 'inactive'),
  ('C=C(C)C(=O)[O][Sn]([CH2]CCC)([CH2]CCC)[CH2]CCC', 'inactive');

* * *

# Read-out: UDP glucuronosyltransferase (UGT1A1), UGT1A1 (gene 54658)
# TEST: LTEA_HepaRG_UGT1A1: Life Technologies and Expression Analysis (LTEA) Assay for UDP glucuronosyltransferase (UGT1A1) using HepaRG (AID 2283538)
# MEASUREMENT CONTEXT: mRNA level, 48 h; actives raise or lower the signal
Calls of active or inactive are those of the source. How the source made its calls: active means hit-call score of the fitted dose curve at least 0.9, where 1 is the maximum; inactive means score below 0.9.
Just give me one of these, please: label 1 (active), label 0 (inactive)

Prompt: Please indicate how the test categorized CC12CC1(C)C(=O)N(c1cc(Cl)cc(Cl)c1)C2=O (stereo not drawn) .
Response: label 1

Prompt: Fill in: this test's call for O=C(O)C(F)(F)C(F)(F)C(F)(F)C(F)(F)C(F)(F)C(F)(F)F is ___
Response: label 0

Prompt: Look up the recorded call for CCOP(=S)(OCC)SCSP(=S)(OCC)OCC in this test.
Response: label 1

Prompt: What classification did CCN1CCC2(CC1)COc1cc3c(cc12)N(C(=O)c1ccc(-c2ccc(-c4nnc(C)o4)cc2C)cc1)CC3 end up with in this test?
Response: label 0

Prompt: Answer briefly: the call reported for CC(C)(C)c1cc(O)ccc1O in this assay.
Response: label 0

Prompt: Hi, do you know how Oc1cccc2cccnc12 came out in this test?
Response: label 0

Prompt: Could you please tell me the result logged for ClC1(Cl)C2(Cl)C3(Cl)C4(Cl)C(Cl)(Cl)C5(Cl)C3(Cl)C1(Cl)C5(Cl)C24Cl (stereo not drawn) in this assay?
Response: label 0

Prompt: // outcome(item) with item = O=c1[nH]c(=O)[nH]c(=O)[nH]1
Response: label 0

* * *

# Read-out: Fatty Acid-Binding Protein 1 (FABP1), FABP1 (gene 2168)
# TEST: LTEA_HepaRG_FABP1: Life Technologies and Expression Analysis (LTEA) Assay for Fatty Acid-Binding Protein 1 (FABP1) using HepaRG (AID 2283494)
# MEASUREMENT CONTEXT: mRNA level, 48 h; actives raise or lower the signal
Active and inactive are the calls of the source. Rule for the calls: active = hit-call score of the fitted dose curve at least 0.9, where 1 is the maximum; inactive = score below 0.9.
MEASUREMENT NAME: outcome

INSERT INTO assay_data (compound, measurement_name, observed_result) VALUES
  ('O=C(O)C(F)(F)C(F)(F)C(F)(F)C(F)(F)C(F)(F)C(F)(F)C(F)(F)C(F)(F)C(F)(F)C(F)(F)F', 'outcome', 'inactive'),
  ('CCC(=O)C(CC(C)N(C)C)(c1ccccc1)c1ccccc1 (centres undefined)', 'outcome', 'inactive'),
  ('Cc1ccccc1N', 'outcome', 'inactive'),
  ('C[C@]12CCC(=O)C[C@@H]1CC[C@@H]1[C@@H]2CC[C@]2(C)[C@@H](O)CC[C@@H]12', 'outcome', 'inactive');

* * *

# SYSTEM UNDER TEST: Estrogen receptor beta (Homo sapiens) (UniProt Q92731)
# Sequence (Q92731 whole entry, looked up, the tested form may be a part): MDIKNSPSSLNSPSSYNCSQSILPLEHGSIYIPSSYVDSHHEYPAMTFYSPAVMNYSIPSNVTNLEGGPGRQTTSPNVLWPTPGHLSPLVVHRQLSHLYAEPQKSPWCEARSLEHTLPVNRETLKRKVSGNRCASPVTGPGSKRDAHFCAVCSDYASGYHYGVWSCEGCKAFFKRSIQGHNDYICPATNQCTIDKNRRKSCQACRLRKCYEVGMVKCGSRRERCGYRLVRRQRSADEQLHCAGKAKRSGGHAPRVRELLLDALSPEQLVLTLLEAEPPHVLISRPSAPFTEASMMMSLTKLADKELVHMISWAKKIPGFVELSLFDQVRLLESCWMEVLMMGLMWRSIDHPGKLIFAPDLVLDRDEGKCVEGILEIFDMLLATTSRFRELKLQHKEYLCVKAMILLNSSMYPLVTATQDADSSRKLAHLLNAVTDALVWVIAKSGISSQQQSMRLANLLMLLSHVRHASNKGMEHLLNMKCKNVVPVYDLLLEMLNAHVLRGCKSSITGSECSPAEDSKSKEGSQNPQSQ
# TEST: OT_ER_ERbERb_1440: Odyssey Thera (OT) 24-hour HEK293T Protein-Complementation Assay for Estrogen Receptor-beta/-beta Homodimer (AID 2283380);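 further: fluorescence gain from ER beta LBD homodimer complementation read by laser scanning cytometry; scored as signal increase over DMSO baseline for both agonists and antagonists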
Active and inactive are the calls of the source. How the source made its calls: active means hit-call score of the fitted dose curve at least 0.9, where 1 is the maximum; inconclusive means response in the unintended direction; inactive means score below 0.9.
Answer with one of the outcomes given here: yes = active, no = inactive

Prompt: Outcome logged for Cl/C=C\C[N+]12CN3CN(CN(C3)C1)C2 in this assay:
Response: no

Prompt: Hello, I am checking results. What call was entered for CC1(C)Cc2cccc(O)c2O1 ?
Response: no

Prompt: Each molecule tested received a call. Report the one for NNC(=S)NN .
Response: no

Prompt: Test call for this molecule, please: OCc1ccco1
Response: no

Prompt: Hi, do you know how C[C@]12CC[C@H](O)CC1=CC[C@@H]1[C@@H]2CC[C@]2(C)C(=O)CC[C@@H]12 came out in this test?
Response: yes

Prompt: Test call for this molecule, please: Oc1cccc2cccnc12
Response: no

Prompt: So what was the verdict on CCCCCCCCc1ccc(O)cc1 in this test?
Response: yes

Prompt: Please share the test call associated with COc1cc(OC)nc(NC(=O)NS(=O)(=O)c2ncccc2C(=O)N(C)C)n1 .
Response: no

Prompt: # fetch the recorded call for BrCCBr here
Response: no

Prompt: Can you look up the reported call for Cn1sc(Cl)cc1=O for me?
Response: no

Prompt: Per the assay record, what outcome was assigned to Cc1ccc2ccccc2c1C ?
Response: no

* * *

# SYSTEM UNDER TEST: Bile acid receptor (Homo sapiens) (UniProt Q96RI1)
# Sequence (Q96RI1 whole entry, looked up): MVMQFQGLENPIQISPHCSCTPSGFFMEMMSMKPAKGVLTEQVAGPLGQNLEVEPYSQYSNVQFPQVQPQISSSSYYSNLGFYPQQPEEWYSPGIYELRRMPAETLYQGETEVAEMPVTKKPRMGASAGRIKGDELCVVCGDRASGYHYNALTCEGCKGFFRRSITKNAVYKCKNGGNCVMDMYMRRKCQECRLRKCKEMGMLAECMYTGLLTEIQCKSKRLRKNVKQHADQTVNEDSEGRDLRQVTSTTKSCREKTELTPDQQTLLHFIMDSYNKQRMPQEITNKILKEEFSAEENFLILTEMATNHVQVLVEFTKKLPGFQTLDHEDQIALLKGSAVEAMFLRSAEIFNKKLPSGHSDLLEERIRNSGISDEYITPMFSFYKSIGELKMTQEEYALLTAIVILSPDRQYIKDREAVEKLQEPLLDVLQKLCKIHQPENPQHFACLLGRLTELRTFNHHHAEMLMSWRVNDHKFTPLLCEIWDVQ
# TEST: ATG_IR1_CIS: Attagene CIS-FACTORIAL HepG2 Assay for human Nuclear Receptor Subfamily 1 Group H Member 4 (NR1H4), IR1 submotif (AID 2282946)
# MEASUREMENT CONTEXT: IR1 reporter transcription, actives raise or lower the signal
# Experimental: ATG_CIS is a cell-based, multiplexed-readout assay that uses HepG2, a human liver cell line, with measurements taken at 24 hours after chemical dosing in a 24-well plate.ATG_IR1_CIS is one of 52 assay component(s) measured or calculated from the ATG_CIS assay. […] This assay endpoint, ATG_IR1_CIS, was analyzed with bidirectional fitting relative to DMSO as the negative control and baseline of activity. […]
Activity calls are given as the source filed them. Rule for the calls: active = hit-call score of the fitted dose curve at least 0.9, where 1 is the maximum; inactive = score below 0.9.
MEASUREMENT NAME: outcome

INSERT INTO assay_data (given_smiles, measurement_name, observed_result) VALUES
  ('CC(C)c1ccc(CO)cc1', 'outcome', 'inactive'),
  ('CCCCCCCCCl', 'outcome', 'inactive'),
  ('CCC(=O)c1ccccc1', 'outcome', 'inactive');

* * *

# Read-out: CYP4A11 (gene 1579)
# TEST: LTEA_HepaRG_CYP4A11: Life Technologies and Expression Analysis (LTEA) Assay for CYP4A11 using HepaRG (AID 2283486)
# MEASUREMENT CONTEXT: mRNA level, 48 h; actives raise or lower the signal
Active and inactive are the calls of the source. Rule for the calls: active = hit-call score of the fitted dose curve at least 0.9, where 1 is the maximum; inactive = score below 0.9.
MEASUREMENT NAME: AC50

INSERT INTO measurements (molecule, observed_result) VALUES
  ('ClCC(Cl)CCl', 'inactive'),
  ('CCC(=O)C(CC(C)N(C)C)(c1ccccc1)c1ccccc1 (centres undefined)', 'inactive'),
  ('C[C@]12CCC(=O)C[C@@H]1CC[C@@H]1[C@@H]2CC[C@]2(C)[C@@H](O)CC[C@@H]12', '23.9 µM (active)'),
  ('NC(=O)O', 'inactive');
